From: patent US20230414780A1

Recorded pKd, one value per entry.
Target: T1, human TfR ectodomain fused to a mouse IgG1 Fc fragment (human, UniProt P02786 89-760)
T1 construct: extracellular domain; ectodomain fused to the N-terminal end of the Fc, made in-house; not shown: mouse IgG1 Fc fragment
T1 sequence (P02786 89-760): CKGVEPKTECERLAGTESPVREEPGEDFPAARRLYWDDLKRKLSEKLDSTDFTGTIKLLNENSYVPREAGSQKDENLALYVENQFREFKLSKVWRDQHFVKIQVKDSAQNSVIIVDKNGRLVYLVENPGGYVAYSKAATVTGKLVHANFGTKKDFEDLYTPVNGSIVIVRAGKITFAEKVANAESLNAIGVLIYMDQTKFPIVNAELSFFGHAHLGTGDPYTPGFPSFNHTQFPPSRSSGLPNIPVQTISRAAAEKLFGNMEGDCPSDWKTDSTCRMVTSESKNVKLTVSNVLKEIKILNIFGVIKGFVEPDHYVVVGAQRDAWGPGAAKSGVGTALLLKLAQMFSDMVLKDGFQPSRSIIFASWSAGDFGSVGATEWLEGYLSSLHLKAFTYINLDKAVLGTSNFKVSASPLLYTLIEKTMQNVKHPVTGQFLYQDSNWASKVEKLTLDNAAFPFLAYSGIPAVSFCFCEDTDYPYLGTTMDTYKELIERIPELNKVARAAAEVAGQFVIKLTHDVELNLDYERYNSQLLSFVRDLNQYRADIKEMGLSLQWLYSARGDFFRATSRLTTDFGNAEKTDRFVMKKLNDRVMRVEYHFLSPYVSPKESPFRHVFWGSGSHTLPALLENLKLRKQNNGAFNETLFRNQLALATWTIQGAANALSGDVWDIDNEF
Assay: SPR, kinetic
Description: Binding properties of some VHHs were also evaluated using Surface Plasmon Resonance (SPR) experiments. The human, mouse and rhesus monkey TfR (having respectively GeneBank number NM_003234.2, NM_011638, NC_041755.1) ectodomains were fused to the N-terminal end of a mouse IgG1 Fc fragment and the recombinant proteins were produced and purified in-house. Interaction of VHHs with the receptors was tested using a Biacore T200 (GE Healthcare). […]
// pKd: -log10(molar conc.)

Use the examples below as a reference point.
binder	pKd
VHH A1 (C5^V1) (VHH) VHH: EVQLVESGGGVVQPGGSLKLSCVASGADFSINFIRWYRQAPGKQREFVAGFTATGNTNYADSMKGRFTISRDNTKNAVYLQIDSLKPEDTAVYYCYMLDKWGQGTQVTVSS	9.06
VHH A (C5) (VHH, form with the C-terminal myc-His6 tag (x = 1), since the VHHs were detected with anti-6His or anti-cMyc; the same holds for m12 to m126) VHH: EVQLVESGGGVVQPGGSLKLSCVASGTDFSINFIRWYRQAPGKQREFVAGFTATGNTNYADSMKGRFTISRDNTKNAVYLQIDSLKPEDTAVYYCYMLDKWGQGTQVTVSS	9.69
C5^h9 (VHH) VHH: EVQLVESGGGVVQPGGSLRLSCAASGTDFSINFIRWYRQAPGKGLEFVAGFTATGNTNYADSVKGRFTISRDNAKNTLYLQMNSLRPEDTAVYYCYMLDKWGQGTQVTVSS	7.97
B8^V12 (VHH) VHH: EVQLVESGGGVVQPGGSLRLSCAASGEIFYINFMRWYRQAPGKQREWVAGFTRDGSTNYPDSAKGRFTISRDNAKNTVYLQIDSLKPEDTAVYYCYMLDTWGQGTQVTVSS	9.01
E4 (VHH) VHH: EVQLVESGGGLVQAGDSLRLSCTASGLPLSNYPMGWFRRAPGKERELIASISRTGDGTYYADSSVKGRFTISRDNAENTVSLQMNSLKPEDTAVYYCGAGINPTKYWGQGTQVTVSS	8.90
B8^V31 (VHH) VHH: EVQLVESGGGVVQPGGSLRLSCAASGEIKSINFMRWYRQAPGKQREWVAGFTRDGSTNYPDSAKGRFTISRDNAKNTVYLQIDSLKPEDTAVYYCYMLDTWGQGTQVTVSS	7.22

Q. Requested read-out: pKd. Entry: C5^V32 (VHH) VHH: EVQLVESGGGVVQPGGSLKLSCVASGTDFSINFIRWYSQAPGKQREFVAGFTATGNTNYADSMKGRLTISRDNTKNAVYLQIDSLKPEDTAVYYCYMLGKWGQGTQVTVSS
A. 7.45

Q. What do you have for C5^V31 (VHH) VHH: EVQLVESGGGVVQPGGSLKLSCVASGTDRSINFIRWYRQAPGKQREFVAGFTATGNTNYADSMKGRFTISRDNTKNAVYLQIDSLKPEDTAVYYCYMLDKWGQGTQVTVSS ?
A. 7.32

Q. What do you have for VHH A5 (C5^V5) (VHH) VHH: EVQLVESGGGVVQPGGSLKLSCVASGTDFSINFIRWYRQAPGKQREFVAGFTATGNTNYADSMKGRFTISRDNTKNAVYLQIDSLKPEDTAVYYCAMLDKWGQGTQVTVSS ?
A. 6.81

Q. What do you have for VHH B (B8) (VHH) VHH: EVQLVESGGGVVQPGGSLRLSCAASGEIFSINFMRWYRQAPGKQREWVAGFTRDGSTNYPDSAKGRFTISRDNAKNTVYLQIDSLKPEDTAVYYCYMLDTWGQGTQVTVSS ?
A. 10.25

Q. What do you have for VHH C (B6) (VHH) VHH: EVQLVESGGGLVQPGGSLRLSCTASGGPIEQYPMGWFRRAPGKERELVASISRSGDGTYYAISSVKGRFTISRDNAENTVFLQMNSLKPDDTAVYYCGAGINPTKIWGQGTQVTVSS ?
A. 9.18

Q. What do you have for C3 (VHH) VHH: EVQLVQSGGGLVQAGGSLRLSCAASGRDFSDTSMAWHRQAPGKERLWVAGIRSGSTSTSYADSVKGRFTISRDDAKNTVYLQMDNLTPEDTAVYFCYSKGYWGQGTQVTVSS ?
A. 9.25

Q. What do you have for H1 (VHH, also called phage-H1 (as tracer)) VHH: EVQLVESGGGLVQPGGSLRLSCAASGFASHLYAIGWFRQAPGKEREKVSCISSNDGSTYYADSVKGRFTISRDTVKDMVYLQMNSLKPEDTAVYYCATDLTVHCFMAEYDWWGQGTQVTVSS ?
A. 7.24

Q. What do you have for VHH A16 (C5^V16) (VHH) VHH: EVQLVESGGGVVQPGGSLKLSCVASGTDFSINFIRWYRQAPGKQREFVAGFTATGNTNYADSMKGRFTISRDNTKNAVYLQIDSLKPEDTAVYYCYILDKWGQGTQVTVSS ?
A. 7.84

Q. What do you have for VHH A15 (C5^V15) (VHH) VHH: EVQLVESGGGVVQPGGSLKLSCVASGTDFSINFIRWYRQAPGKQREFVAGFTATGNTNYADSMKGRFTISRDNTKNAVYLQIDSLKPEDTAVYYCFMLDKWGQGTQVTVSS ?
A. 9.60

Q. What do you have for VHH A8 (C5^V8) (VHH) VHH: EVQLVESGGGVVQPGGSLKLSCVASGTDFSINFIRWYRQAPGKQREFVAGFTATGNTNYADSMKGRFTISRDNTKNAVYLQIDSLKPEDTAVYYCYMLAKWGQGTQVTVSS ?
A. 7.02
